Target: recombinant human CL receptor/RAMP1 (Homo sapiens, UniProt O60894+Q16602)
Construct: membranes used
Sequence (Q16602 23-461): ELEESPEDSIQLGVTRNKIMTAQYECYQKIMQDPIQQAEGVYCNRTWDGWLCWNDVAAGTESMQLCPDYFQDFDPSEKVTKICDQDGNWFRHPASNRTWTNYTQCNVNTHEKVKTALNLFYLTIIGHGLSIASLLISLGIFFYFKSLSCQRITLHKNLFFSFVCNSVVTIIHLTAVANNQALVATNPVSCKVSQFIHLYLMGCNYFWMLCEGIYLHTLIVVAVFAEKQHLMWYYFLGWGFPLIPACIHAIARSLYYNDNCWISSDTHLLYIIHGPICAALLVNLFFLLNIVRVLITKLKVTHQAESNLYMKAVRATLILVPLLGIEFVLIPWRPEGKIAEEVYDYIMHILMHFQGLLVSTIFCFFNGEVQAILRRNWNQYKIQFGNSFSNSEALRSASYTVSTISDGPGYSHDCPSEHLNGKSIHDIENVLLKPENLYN
Sequence (O60894 27-148): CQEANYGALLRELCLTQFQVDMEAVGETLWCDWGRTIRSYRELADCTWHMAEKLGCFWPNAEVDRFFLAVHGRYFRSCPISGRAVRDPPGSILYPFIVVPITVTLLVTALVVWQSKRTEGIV
Assay: Recombinant receptor binding assay (125I-hCGRP)
Details: exemplary compounds of the invention
pKi: −log10 of the molar value. Where a name gives a salt, the structure may show the parent alone.

Compound	Measured on	pKi
C[C@@H]1[C@H](c2cc(F)cc(F)c2F)C[C@H](NC(=O)c2cnc3c(c2)C[C@@]2(C3)C(=O)Nc3ncc(C#N)cc32)C(=O)N1CC(F)(F)F [Example 34]	recombinant human CL receptor/RAMP1 (Homo sapiens, UniProt O60894+Q16602)	10.18
C[C@@H]1[C@H](c2c(F)ccc(F)c2F)C[C@H](NC(=O)c2cnc3c(c2)C[C@@]2(C3)C(=O)Nc3ncc(F)cc32)C(=O)N1CC(F)(F)F [Example 33, hydrochloride]	recombinant human CL receptor/RAMP1 (Homo sapiens, UniProt O60894+Q16602)	10.96
